Assay: Tissue distribution in Swiss nu/nu SSCUP mice bearing Beu
Format: in vivo, human
Details: mouse, plasma, iv, 3 umol/animal, 6 h; read-out: plasma % ID/g

>  <Compound>
CCN(CC)CCNC(=O)c1ccc(I)cc1 [Derivative A, N-(2-diethylaminoethyl) 4-iodo benzamide]

>  <tissue uptake at 6 h (%ID/g)>
0.12

$$$$

###

Test: Tissue distribution in Swiss nu/nu SSCUP mice bearing Beu
Assay type: in vivo, human
Conditions: mouse, brain, iv, 3 umol/animal, 2 h; read-out: brain % ID/g
Method: The study of the tissue distribution of the ^125 I labelled compounds was performed in mice bearing grafted melanomas (cf. autoradiograms above). […] The animals are sacrificed at different time intervals of 1 to 24 hours after the injection. The blood is collected and the principal organs are excised. Aliquots are weighed and the radioactivity of the samples is measured in a […] 1191 counter (analytic tracer). The counting yield for iodine 125 is 60%. […]

>  <Molecule>
CCN(CC)CCNC(=O)c1ccc(I)cc1 [Derivative A, N-(2-diethylaminoethyl) 4-iodo benzamide]

>  <tissue uptake at 2 h>
1.13 %ID/g

$$$$

###

Experiment: Tissue distribution in Swiss nu/nu SSCUP mice bearing Beu
Type: in vivo, human
Conditions: mouse, submaxillary glands, iv, 3 umol/animal; 12 h; read-out: submaxillary glands % ID/g

>  <Compound>
CCN(CC)CCNC(=O)c1ccc(I)cc1 [Derivative A, N-(2-diethylaminoethyl) 4-iodo benzamide]

>  <Display unit>
%ID/g

>  <tissue uptake at 12 h>
0.04

$$$$

###

Assay: Tissue distribution in C57 BL6 mice bearing B16
Type: in vivo, mouse
Conditions: mouse, intestine, iv, 3 umol/animal; 12 h; read-out: intestine % ID/g
Readout label: tissue uptake at 12 h (%ID/g)

>  <Compound>
CCN(CC)CCNC(=O)c1ccc(I)cc1 [Derivative A, N-(2-diethylaminoethyl) 4-iodo benzamide]

>  <Display unit>
%ID/g

>  <Recorded measurement>
0.14

$$$$

###

Experiment: Tissue distribution in C57 BL6 mice bearing B16
Assay type: in vivo, mouse
Details: mouse, pancreas, iv, 3 umol/animal; 4 h; read-out: pancreas % ID/g
Readout label: tissue uptake at 4 h (%ID/g)

>  <Compound>
CCN(CC)CCNC(=O)c1ccc(I)cc1 [Derivative A, N-(2-diethylaminoethyl) 4-iodo benzamide]

>  <Display unit>
%ID/g

>  <Recorded measurement>
2.01

$$$$

###

Experiment: Tissue distribution in C57 BL6 mice bearing B16
Format: in vivo, mouse
Conditions: mouse, spleen, iv, 3 umol/animal; 2 h; read-out: spleen % ID/g

>  <Compound>
CCN(CC)CCNC(=O)c1ccc(I)cc1 [Derivative A, N-(2-diethylaminoethyl) 4-iodo benzamide]

>  <tissue uptake at 2 h>
2.94 %ID/g

$$$$

###

Assay: Tissue distribution in Swiss nu/nu SSCUP mice bearing Dau
Assay type: in vivo, human
Conditions: mouse, pancreas, iv, 3 umol/animal; 6 h; read-out: pancreas % ID/g

>  <Molecule>
CCNCCNC(=O)c1ccc(I)cc1 [Derivative B, N-(2-ethylaminoethyl) 4-iodo benzamide]

>  <tissue uptake at 6 h / %ID/g>
0.4

$$$$
>  <Molecule>
CCN(CC)CCNC(=O)c1ccc(I)cc1 [Derivative A, N-(2-diethylaminoethyl) 4-iodo benzamide]

>  <tissue uptake at 6 h / %ID/g>
0.41

$$$$

###

Test: Tissue distribution in Swiss nu/nu SSCUP mice bearing Beu
Format: in vivo, human
Settings: mouse, pancreas, iv, 3 umol/animal; 4 h; read-out: pancreas % ID/g

>  <Compound>
CCN(CC)CCNC(=O)c1ccc(I)cc1 [Derivative A, N-(2-diethylaminoethyl) 4-iodo benzamide]

>  <tissue uptake at 4 h, %ID/g>
1.39

$$$$

###

Let's look at some compounds and their measured tissue uptake at 4 h.
Experiment: Tissue distribution in C57 BL6 mice bearing B16
Assay type: in vivo, mouse
Conditions: mouse, kidney, iv, 3 umol/animal, 4 h; read-out: kidney % ID/g

>  <Compound>
CCN(CC)CCNC(=O)c1ccc(I)cc1 [Derivative A, N-(2-diethylaminoethyl) 4-iodo benzamide]

>  <tissue uptake at 4 h / %ID/g>
3.67

$$$$
>  <Compound>
CCNCCNC(=O)c1ccc(I)cc1 [Derivative B, N-(2-ethylaminoethyl) 4-iodo benzamide]

>  <tissue uptake at 4 h / %ID/g>
4.42

$$$$

###

Assay: Tissue distribution in C57 BL6 mice bearing B16
Type: in vivo, mouse
Conditions: mouse, muscle, iv, 3 umol/animal, 2 h; read-out: muscle % ID/g

>  <Compound>
CCNCCNC(=O)c1ccc(I)cc1 [Derivative B, N-(2-ethylaminoethyl) 4-iodo benzamide]

>  <tissue uptake at 2 h / %ID/g>
1.33

$$$$
>  <Compound>
CCN(CC)CCNC(=O)c1ccc(I)cc1 [Derivative A, N-(2-diethylaminoethyl) 4-iodo benzamide]

>  <tissue uptake at 2 h / %ID/g>
1.13

$$$$

###

Assay: Tissue distribution in Swiss nu/nu SSCUP mice bearing Beu
Format: in vivo, human
Details: mouse, liver, iv, 3 umol/animal, 1 h; read-out: liver % ID/g

>  <Molecule>
CCN(CC)CCNC(=O)c1ccc(I)cc1 [Derivative A, N-(2-diethylaminoethyl) 4-iodo benzamide]

>  <tissue uptake at 1 h>
5.27 %ID/g

$$$$

###

This section presents compounds with their documented tissue uptake at 1 h values.
Test: Tissue distribution in C57 BL6 mice bearing B16
Format: in vivo, mouse
Settings: mouse, blood, iv, 3 umol/animal, 1 h; read-out: blood % ID/g

>  <Compound>
CCNCCNC(=O)c1ccc(I)cc1 [Derivative B, N-(2-ethylaminoethyl) 4-iodo benzamide]

>  <tissue uptake at 1 h>
1.31 %ID/g

$$$$
>  <Compound>
CCN(CC)CCNC(=O)c1ccc(I)cc1 [Derivative A, N-(2-diethylaminoethyl) 4-iodo benzamide]

>  <tissue uptake at 1 h>
1.04 %ID/g

$$$$

###

Assay: Tissue distribution in Swiss nu/nu SSCUP mice bearing Dau
Assay type: in vivo, human
Settings: mouse, brain, iv, 3 umol/animal; 8 h; read-out: brain % ID/g
Parameter: tissue uptake at 8 h. Scope: all listed entries.

>  <Compound>
CCNCCNC(=O)c1ccc(I)cc1 [Derivative B, N-(2-ethylaminoethyl) 4-iodo benzamide]

>  <tissue uptake at 8 h [%ID/g]>
0.14

$$$$
>  <Compound>
CCN(CC)CCNC(=O)c1ccc(I)cc1 [Derivative A, N-(2-diethylaminoethyl) 4-iodo benzamide]

>  <tissue uptake at 8 h [%ID/g]>
0.12

$$$$

###

Assay: Tissue distribution in Swiss nu/nu SSCUP mice bearing Beu
Format: in vivo, human
Conditions: mouse, pancreas, iv, 3 umol/animal; 24 h; read-out: pancreas % ID/g

>  <Compound>
CCN(CC)CCNC(=O)c1ccc(I)cc1 [Derivative A, N-(2-diethylaminoethyl) 4-iodo benzamide]

>  <tissue uptake at 24 h (%ID/g)>
0.05

$$$$

###

Test: Tissue distribution in C57 BL6 mice bearing B16
Assay type: in vivo, mouse
Details: mouse, blood, iv, 3 umol/animal, 2 h; read-out: blood % ID/g
Readout label: tissue uptake at 2 h (%ID/g)

>  <Compound>
CCNCCNC(=O)c1ccc(I)cc1 [Derivative B, N-(2-ethylaminoethyl) 4-iodo benzamide]

>  <Recorded measurement>
0.67

$$$$
>  <Compound>
CCN(CC)CCNC(=O)c1ccc(I)cc1 [Derivative A, N-(2-diethylaminoethyl) 4-iodo benzamide]

>  <Recorded measurement>
0.74

$$$$

###

Experiment: Tissue distribution in Swiss nu/nu SSCUP mice bearing Dau
Type: in vivo, human
Settings: mouse, tumor, iv, 3 umol/animal, 24 h; read-out: tumor % ID/g
Readout label: tissue uptake at 24 h

>  <Molecule>
CCN(CC)CCNC(=O)c1ccc(I)cc1 [Derivative A, N-(2-diethylaminoethyl) 4-iodo benzamide]

>  <Readout label>
tissue uptake at 24 h

>  <Recorded measurement>
0.009 %ID/g

$$$$
>  <Molecule>
CCNCCNC(=O)c1ccc(I)cc1 [Derivative B, N-(2-ethylaminoethyl) 4-iodo benzamide]

>  <Readout label>
tissue uptake at 24 h

>  <Recorded measurement>
0.007 %ID/g

$$$$

###

Assay: Tissue distribution in Swiss nu/nu SSCUP mice bearing Dau
Type: in vivo, human
Details: mouse, submaxillary glands, iv, 3 umol/animal; 2 h; read-out: submaxillary glands % ID/g
Form field: tissue uptake at 2 h (one value per entry).
Readout label: tissue uptake at 2 h

>  <Compound>
CCNCCNC(=O)c1ccc(I)cc1 [Derivative B, N-(2-ethylaminoethyl) 4-iodo benzamide]

>  <Recorded measurement>
4.14 %ID/g

$$$$
>  <Compound>
CCN(CC)CCNC(=O)c1ccc(I)cc1 [Derivative A, N-(2-diethylaminoethyl) 4-iodo benzamide]

>  <Recorded measurement>
3.56 %ID/g

$$$$

###

Assay: Tissue distribution in Swiss nu/nu SSCUP mice bearing Dau
Format: in vivo, human
Conditions: mouse, spleen, iv, 3 umol/animal; 8 h; read-out: spleen % ID/g

>  <Molecule>
CCNCCNC(=O)c1ccc(I)cc1 [Derivative B, N-(2-ethylaminoethyl) 4-iodo benzamide]

>  <tissue uptake at 8 h (%ID/g)>
0.14

$$$$
>  <Molecule>
CCN(CC)CCNC(=O)c1ccc(I)cc1 [Derivative A, N-(2-diethylaminoethyl) 4-iodo benzamide]

>  <tissue uptake at 8 h (%ID/g)>
0.16

$$$$

FYI, the data here is from patent US5190741A.
